Consider the following compounds and their measured melting point readings.

Worked cases, answers included:
CSc1ccc(Nc2nc(=O)cc(N)n2-c2ccc(C)cc2)cc1 ... 231 to 234 °C
Nc1cc(=O)nc(Nc2ccccc2)n1-c1ccccc1 ... 202 to 206 °C
Cc1ccc(Nc2nc(=O)cc(N)n2-c2ccccc2)cc1 ... 207 to 210 °C
COc1ccc(-n2c(N)cc(=O)nc2Nc2ccccc2)cc1 ... 180 to 190 °C
Nc1cc(=O)nc(Nc2ccc(F)cc2)n1-c1ccccc1 ... 225 to 227 °C
Nc1cc(=O)nc(Nc2ccccc2)n1-c1ccc(Cl)cc1 ... 216 to 222 °C
Nc1cc(=O)nc(Nc2ccccc2)n1-c1ccc(Br)cc1 ... 211 to 213 °C
Nc1cc(=O)nc(Nc2ccc(Cl)cc2)n1-c1ccccc1 ... 233 to 237 °C
CSc1ccc(Nc2nc(=O)cc(N)n2-c2ccccc2)cc1 ... 133 to 135 °C
COc1ccc(Nc2nc(=O)cc(N)n2-c2ccccc2)cc1 ... 213 to 216 °C

// sample `CCOc1ccc(Nc2nc(=O)cc(N)n2-c2ccccc2)cc1` , its melting point was 111 to 113 °C

// sample `CCOc1ccc(-n2c(N)cc(=O)nc2Nc2ccccc2)cc1` , its melting point was 114 to 118 °C
